# assay_protocol: chemical genetic growth profiling, strain panel (AID 1159580);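 further: tested at 20 µM; growth read once vehicle control cultures reached saturation at 30 °C; 1 = growth at the plate median or of vehicle wells; lower values mean less growth of the strain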
# test_conditions: S. cerevisiae deletion strains, growth OD, locus YML120C, strain ndi1, hits give low values
Out of some 5,500 compounds screened, about 2,000 (36%) were called active. Roughly 18% stayed inconclusive and do not appear here. The list shows a part of the results.
normalized growth listing for selected compounds.
measurement_type: normalized growth

compound: OC1CCCCC1N1CCC(c2ccccc2)CC1 (stereo unspecified)
data_value: 1.02

compound: CC[C@]12CCCN3CCc4c(n(c5ccccc45)C(=O)C1)[C@@H]32
data_value: 0.986

compound: CCOP(=S)(OCC)Oc1ccc2c(C)c(Cl)c(=O)oc2c1
data_value: 0.962

compound: COc1ccc(CN(CCN(C)C)c2ncccn2)cc1
data_value: 1.01

compound: CC1(C)CC2C1CCC1(C)OC2(C)CCC1O (stereo unspecified)
data_value: 1.01

compound: COC(=O)[C@H]1[C@H]2C[C@@H]3c4[nH]c5cc(OC)ccc5c4CCN3C[C@H]2C[C@@H](OC(=O)c2cc(OC)c(OC)c(OC)c2)[C@@H]1OC
data_value: 1

compound: NC(=O)c1cnccn1
data_value: 0.98

compound: COS(C)(=O)=O
data_value: 1

compound: CC12CCC3C(CC=C4CC(O)CCC43C)C1CCC2=O (stereo unspecified)
data_value: 0.92

compound: C[C@@H]1C[C@@H]([C@H](O)CC2CC(=O)NC(=O)C2)C(=O)[C@@H](C)C1
data_value: 0.0554

compound: O=C(O)c1ccc2c(c1)OCO2
data_value: 1.01

---

# assay_protocol: chemical genetic growth profiling, strain panel (AID 1159580);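 further: tested at 20 µM; growth read once vehicle control cultures reached saturation at 30 °C; 1 = growth at the plate median or of vehicle wells; lower values mean less growth of the strain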
# test_conditions: S. cerevisiae deletion strains, growth OD, locus YLR320W, strain mms22, hits give low values
About 2,000 (36%) of roughly 5,500 compounds were called active. Not shown: some 18% with an inconclusive outcome. The list shows a part of the results.

molecule: CC(Cc1ccc(O)c(O)c1)(NN)C(=O)O (configuration not stated)
normalized growth: 1.02
//
molecule: C[C@](N)(Cc1ccc(O)cc1)C(=O)O
normalized growth: 1.01
//
molecule: COC(=O)[C@H]1[C@H]2C[C@@H]3c4[nH]c5cc(OC)ccc5c4CCN3C[C@H]2C[C@@H](OC(=O)c2cc(OC)c(OC)c(OC)c2)[C@@H]1OC
normalized growth: 0.978
//
molecule: CC(=O)O[C@H]1C[C@@H](OC(C)=O)C(C)(C)C2C[C@@H](OC(C)=O)[C@]3(C)C(CC[C@@]4(C)[C@H](c5ccoc5)C(=O)[C@H]5O[C@]543)[C@]21C (some centres not stated)
normalized growth: 1
//
molecule: COc1cc(/C=C/C(=O)O)cc(OC)c1OC
normalized growth: 0.995
//
molecule: CC[C@]12CCCN3CCc4c(n(c5ccccc45)C(=O)C1)[C@@H]32
normalized growth: 1
//
molecule: COc1cc(/C=C/C(=O)O)ccc1O
normalized growth: 1
//
molecule: CCCc1cc(OC)c2c(c1)OCO2
normalized growth: 1
//
molecule: CO[C@@H]1[C@@H](O[C@@H]2O[C@H](C)[C@@H](O[C@H]3C[C@@](C)(O)[C@H](O)[C@H](C)O3)[C@H](N(C)C)[C@H]2O)[C@@H](CC=O)C[C@@H](C)[C@@H](O[C@H]2CC[C@H](N(C)C)[C@@H](C)O2)/C=C/C=C/C[C@H](C)OC(=O)C[C@H]1O
normalized growth: 1.02
//
molecule: CC(COc1ccccc1)N(CCCl)Cc1ccccc1 (configuration not stated)
normalized growth: 0.985
//
molecule: CCCN(CCC)C(=O)C(CCC(=O)O)NC(=O)c1ccccc1 (configuration not stated)
normalized growth: 0.987
//
molecule: CC1=CC(=O)CC(C)(C)C1(O)/C=C/C(C)=C\C(=O)O (configuration not stated)
normalized growth: 1.02
